experimental.protocol: Phage titer assay of phage binding to hair
Parameters: species or system human
test.conditions: phage-displayed peptide; six gray hair strands; relative to HP2-TonB-Gray3 = 100
The entries below are paired with their reported Phage Titer (%) relative to the activity of HP2-TonB-Gray3.
quantity.kind: Phage Titer (%) relative to the activity of HP2-TonB-Gray3

# molecule, obs.value
data = [
    ("HP2-TonB-MEA4: hair-binding domain, SEQ ID NO: 89 (peptide) PSAQSQLPDKHSGLHERAPQRYGPEPEPEPEPIPEPPKEAPVVIEKPKPKPKPKPKPPAHINKTNPHQGNHHSEKTQRQGS", "1%"),
    ("KF11-[(KP)6GG]2-Gray4A: hair-binding domain, SEQ ID NO: 97 (peptide) PSNTSQLSTGPKPKPKPKPKPKPGGKPKPKPKPKPKPGGPAHNHMQERYTAPQHSPSVNGLGS", "1%"),
    ("HP2-TonB-HB1: hair-binding domain, SEQ ID NO: 93 (peptide) PSAQSQLPDKHSGLHERAPQRYGPEPEPEPEPIPEPPKEAPVVIEKPKPKPKPKPKPPATPPTNVLMLATKGS", "30%"),
    ("MEA4-(EAAAKLL)3-IB5A: hair-binding domain, SEQ ID NO: 94 (peptide) PSHINKTNPHQGNHHSEKTQRQGPEAAAKLLEAAAKLLEAAAKLLPATPPELLHGAPRSGS", "10%"),
]
